assay: Lipophilicity, log P of the compound; assay type: physicochemical; settings: octanol/water
Binary call on logP with cut-off 2: strictly below means Satisfied, and equality or higher means Not satisfied.

Compound	Answer label
Cc1cc(C#N)cc(C(=O)NC(C)(C)CS(C)(=O)=N[N+](=O)[O-])c1NC(=O)c1cc(Br)nn1-c1ncccc1Cl (centres undefined)	Satisfied
CN=S(=O)(CC(C)NC(=O)c1cc(C#N)cc(C)c1NC(=O)c1cc(Br)nn1-c1ncccc1Cl)NN(C)C (centres undefined)	Not satisfied
Cc1cc(Cl)cc(C(=O)NC(C)(C)CS(C)(=N)=O)c1NC(=O)c1cc(C(F)(F)F)nn1-c1ncccc1Cl (centres undefined)	Not satisfied
Cc1cc(C#N)cc(C(=O)NC(C)(C)CS(C)(=N)=O)c1NC(=O)c1cc(Br)nn1-c1ncccc1Cl (centres undefined)	Satisfied
CNC(=O)c1cc(C#N)cc(C)c1NC(=O)c1cc(Br)nn1-c1ncccc1Cl	Satisfied
Cc1cc(C#N)cc(C(=O)NC(C)(C)CS(C)(=N)=O)c1NC(=O)c1cc(OCC(F)(F)F)nn1-c1ncccc1Cl (centres undefined)	Satisfied
CNC(=O)c1cc(Cl)cc(C)c1NC(=O)c1cc(Br)nn1-c1ncccc1Cl	Not satisfied
Cc1cc(Cl)cc(C(=O)NC(C)(C)CS(C)(=N)=O)c1NC(=O)c1cc(OCC(F)(F)F)nn1-c1ncccc1Cl (centres undefined)	Not satisfied
